Please provide measured inhibition at 10 µM for the entries that follow.
Biological target: rat B1R (Rattus norvegicus, UniProt P97583)
Construct: expressed in transfected cells; host or cells: CHO K1 cells
Sequence (P97583 whole entry): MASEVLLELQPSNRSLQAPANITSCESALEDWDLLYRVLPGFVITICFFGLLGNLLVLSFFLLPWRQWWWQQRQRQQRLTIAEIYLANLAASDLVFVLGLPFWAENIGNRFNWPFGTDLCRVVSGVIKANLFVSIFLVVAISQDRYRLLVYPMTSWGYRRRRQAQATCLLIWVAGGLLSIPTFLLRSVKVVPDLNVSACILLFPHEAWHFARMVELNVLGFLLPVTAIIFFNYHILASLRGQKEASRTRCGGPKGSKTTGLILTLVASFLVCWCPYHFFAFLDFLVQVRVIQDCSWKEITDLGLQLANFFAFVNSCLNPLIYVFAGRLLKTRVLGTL
Assay: Functional investigation on the bradykinin receptor 1 (B1R), FLIPR Ca2+ assay, rB1R cells
Format: cell-based
Conditions: % inhibition rat B1R at 10 μM; CHO K1 cells transfected with rat B1R; agonist Des-Arg9 bradykinin at EC80; read-out: % Inh. (rat B1R) 10 μM
Numbers only, in %.

Would you please look over these solved cases?
compound	inhibition at 10 µM, %
COc1cc(C)c(S(=O)(=O)N2CCCC[C@H]2COCC(=O)N2CCC3(CC2)CCC(c2ccccc2)(N2CCC2)CC3)c(C)c1	102
Cc1cccc(Cl)c1S(=O)(=O)N1CCCCC1COCC(=O)N1CCC2(CC1)CCC(c1cccc(F)c1)(N1CCCC1)CC2 (centres unmarked)	98
COc1cc(C)c(S(=O)(=O)N2CCCCC2COCC(=O)N2CCC3(CC2)CCC(c2cccc(F)c2)(N2CCCC2)CC3)c(C)c1 (centres unmarked)	99
Cc1cc(S(=O)(=O)N2CCCCC2CCC(=O)N2CCC3(CC2)CCC(c2cccs2)(N(C)C)CC3)c(C)cc1Cl (centres unmarked)	101
COc1cc(C)c(S(=O)(=O)N2CCCCC2CCCC(=O)N2CCC3(CC2)CCC(c2cccs2)(N(C)C)CC3)c(C)c1 (centres unmarked)	102
Cc1cc(S(=O)(=O)N2CCCCC2CCC(=O)N2CCC3(CC2)CCC(c2cccc(F)c2)(N2CCCC2)CC3)c(C)cc1Cl (centres unmarked)	86
COc1cc(C)c(S(=O)(=O)N2c3ccccc3C[C@H]2COCC(=O)N2CCC3(CC2)CCC(c2ccccc2)(N(C)C)CC3)c(C)c1	102
COc1cc(C)c(S(=O)(=O)N(CCOCC(=O)N2CCC3(CC2)CCC(c2ccccc2)(N(C)C)CC3)C2CC2)c(C)c1	102

Answer for every listed entry: what is its inhibition at 10 µM? The entries follow.
1. COc1cc(C)c(S(=O)(=O)N2CCCCC2CCCC(=O)N2CCC3(CC2)CCC(c2cccc(F)c2)(N2CCCC2)CC3)c(C)c1 (centres unmarked)
2. COc1cc(C)c(S(=O)(=O)N(CCOCC(=O)N2CCC3(CC2)CCC(c2cccc(F)c2)(N2CCCC2)CC3)C2CC2)c(C)c1

[98, 98]
